Assignment: determine reported melting point for the given compounds.

IN: Name the recorded melting point of the compound listed here: `CC(C)(O)C#Cc1c(F)c(F)c(-c2c(F)c(F)c(C#CC(C)(C)O)c(F)c2F)c(F)c1F`
OUT: 119 to 121 °C

IN: Name the recorded melting point of the compound listed here: `CC(=O)CC(=O)N[C@H]1CC(=O)OC1=O`
OUT: 132 to 135 °C

IN: Name the recorded melting point of the compound listed here: `COc1ccccc1Oc1c(NS(=O)(=O)c2cccs2)nc(-c2ncccn2)nc1OCCOc1ncc(Br)cn1`
OUT: > 300 °C

IN: Name the recorded melting point of the compound listed here: `Cc1cc(O)cc(C)c1[N+](=O)[O-]`
OUT: 106 to 108 °C

IN: Name the recorded melting point of the compound listed here: `COc1cccc2c1nc(C)c1ccn(-c3ccccc3C)c12`
OUT: 143 to 145 °C

IN: Name the recorded melting point of the compound listed here: `Cn1cc(C2=C(c3cn(CCCBr)c4ccccc34)C(=O)OC2=O)c2ccccc21`
OUT: 168 to 170 °C

IN: Name the recorded melting point of the compound listed here: Cc1cc(C(=O)OC(CC(C)C)C(=O)O)cc(C)n1 (racemic)
OUT: 95 to 96 °C

IN: Name the recorded melting point of the compound listed here: N#Cc1ccc(N2C(=O)[C@H]3C(O)C(O)CN3C2=O)c2ccccc12 (some centres undefined)
OUT: 225 °C

IN: Name the recorded melting point of the compound listed here: `CCCc1c(OCc2ccc(C(=O)NCCCCc3cccnc3)cc2)ccc(C(C)=O)c1O`
OUT: 91 to 95 °C

---

Assignment: determine reported melting point for the given molecules.

IN: Name the recorded melting point of the molecule listed here: N#CC(C=O)c1ccc(NS(=O)(=O)c2cccc(Cl)c2Cl)cc1 (stereo not given)
OUT: 88 to 102 °C

IN: Name the recorded melting point of the molecule listed here: `CC(C)(C)OC(=O)N1CCN(c2cccc3ccc(-n4nnc5ncccc54)cc23)CC1`
OUT: 173 to 175 °C

IN: Name the recorded melting point of the molecule listed here: Cc1cc2c(cc1C)C1(CO2)C(=O)Nc2ccccc21 (stereo not given)
OUT: 206 to 207 °C

IN: Name the recorded melting point of the molecule listed here: `CCOC(=O)c1cnc2nc(C)c(OCC)cc2c1Cl`
OUT: > 250 °C

IN: Name the recorded melting point of the molecule listed here: `O=C(O)CCc1cc(Br)c(OC(=O)c2c3ccccc3nc3ccccc23)c(Br)c1`
OUT: 240 to 242 °C

---

Assignment: determine reported melting point for the given compounds.

IN: Name the recorded melting point of the compound listed here: `CC(C)(O)Cn1c(COCc2ccccc2)nc2c(N)nc3ccccc3c21`
OUT: 196 to 198 °C

IN: Name the recorded melting point of the compound listed here: `CCNC(=O)c1nnc(S)o1`
OUT: 210 °C

IN: Name the recorded melting point of the compound listed here: `Cc1c(I)c(=O)n(C)c(=O)n1C`
OUT: 155 to 157 °C

IN: Name the recorded melting point of the compound listed here: COc1ccccc1N1CCN([C@@H]2Cc3cccc(O)c3C[C@H]2O)CC1 (relative stereo)
OUT: 199 to 201 °C

IN: Name the recorded melting point of the compound listed here: `O=C1CCc2cc(OCc3ccccc3)c(O)c([N+](=O)[O-])c21`
OUT: 252 to 254 °C

IN: Name the recorded melting point of the compound listed here: `O=C(NCCc1ccccc1Cl)C1CCCCC1`
OUT: 93.5 to 93.9 °C

IN: Name the recorded melting point of the compound listed here: `N#CC1=C(Nc2ccc(F)cc2)CCC1`
OUT: 100 to 102 °C

IN: Name the recorded melting point of the compound listed here: `CCOC(=O)C(=CNc1cccc(N2CCN(C)CC2)n1)C(=O)OCC`
OUT: 114 to 115 °C

IN: Name the recorded melting point of the compound listed here: `O=C1OCCN1c1cc(-c2ccnc(Nc3cccc(Cl)c3)n2)ccn1`
OUT: 162 to 163 °C

IN: Name the recorded melting point of the compound listed here: `CCOc1nn2c(-c3ccccc3)nnc2c2ccccc12`
OUT: 172 to 173 °C

IN: Name the recorded melting point of the compound listed here: `Nc1ccn2nc(-c3cccc(F)c3)nc2c1`
OUT: 200 to 203 °C

IN: Name the recorded melting point of the compound listed here: `CCCCCCCCCCCCCCCc1cc2cc(C(=O)O)ccc2n1C`
OUT: 127 to 128 °C

IN: Name the recorded melting point of the compound listed here: `Nc1c(Nc2ccon2)cnc2c1COCC2`
OUT: 209 to 211 °C

IN: Name the recorded melting point of the compound listed here: `O=C(NC(=O)c1c(Cl)cccc1Cl)Nc1ccc(-c2ccccc2)cn1`
OUT: 221 to 231 °C

IN: Name the recorded melting point of the compound listed here: `Brc1ccc(C2OCCO2)cc1`
OUT: 56 to 57 °C

IN: Name the recorded melting point of the compound listed here: `CCN(CC)C(=O)c1ccc(OC)cc1-c1ccccc1`
OUT: 64 to 65 °C

IN: Name the recorded melting point of the compound listed here: CN(C(=O)Cc1ccccc1)c1cccc(-c2ccc(CC3SC(=O)NC3=O)cc2)c1 (stereo not given)
OUT: 138 °C

IN: Name the recorded melting point of the compound listed here: `Oc1c(Cl)cc(C2=NCCO2)cc1Cl`
OUT: 189 to 191 °C

IN: Name the recorded melting point of the compound listed here: `O=S(=O)(c1ccc2c(c1)OC(c1ccccc1)(c1ccccc1)O2)N1CCCCC1`
OUT: 163 to 164 °C

IN: Name the recorded melting point of the compound listed here: CC(C)Oc1ccccc1C1(N[C@H](CO)c2ccccc2)C(=O)Nc2ccc(Cl)cc21 (stereo not given in full)
OUT: 193 °C

IN: Name the recorded melting point of the compound listed here: `CC(C)c1csc(NC(=O)OC(C)(C)C)c1C(=O)O`
OUT: 205 to 206 °C

IN: Name the recorded melting point of the compound listed here: `COc1cccc(CC(=O)O)c1OCCCc1cn(-c2ccc(Br)cn2)nc1C(C)C`
OUT: 152 to 153 °C

IN: Name the recorded melting point of the compound listed here: `COc1ccc(N(C(=O)Nc2cc(C)c(S(=O)(=O)C[N+](=O)[O-])c(C)c2)c2ccc(OC)cc2)cc1`
OUT: 150 to 151 °C

IN: Name the recorded melting point of the compound listed here: `CC(=O)NC1(c2ccc(CN3CCN(c4ccccc4)CC3)cc2)CC1`
OUT: 129 to 140 °C

IN: Name the recorded melting point of the compound listed here: CCOC(=O)C1=C(c2ccc(-n3c(C)nc4cnccc43)cc2)NC(OC)=NC1c1ccccc1Cl (stereo not given)
OUT: 228 to 232 °C

IN: Name the recorded melting point of the compound listed here: CCCc1c(OCC(O)COc2ccc3c(=O)cc(C(=O)O)oc3c2CCC)ccc(C(C)=O)c1O (stereo not given)
OUT: 199 to 201 °C

IN: Name the recorded melting point of the compound listed here: `CC(=O)Nc1ccc(OCc2nc3ccccc3o2)cc1C`
OUT: 160 °C

IN: Name the recorded melting point of the compound listed here: `CC(C)Cn1cnc2c(N)nc3ccc(-c4ccc(C(C)(C)C)cc4)cc3c21`
OUT: > 250 °C

IN: Name the recorded melting point of the compound listed here: `Nc1cccc(C=C2c3ccccc3CCc3ccccc32)c1`
OUT: 204 °C

IN: Name the recorded melting point of the compound listed here: `O=C(Nc1cccnc1)N1CCN(c2cc(-c3ccc(F)cc3)ncn2)CC1`
OUT: 180 to 182 °C

IN: Name the recorded melting point of the compound listed here: `OCc1ccc(-c2csc(-c3cn([C@H]4CN5CCC4CC5)nn3)c2)cc1`
OUT: 196 °C

IN: Name the recorded melting point of the compound listed here: `CCCCCCCCCCCCS(=O)(=O)Nc1cc(C(=O)Nc2ccccc2)ccc1OC`
OUT: 156 to 157 °C

IN: Name the recorded melting point of the compound listed here: `Cc1nc2ccc3cnc(N(C)c4cccc([N+](=O)[O-])c4)nc3c2s1`
OUT: 209 to 210 °C

IN: Name the recorded melting point of the compound listed here: `Clc1ccc(-c2cc(C3CC3)nc(Cl)n2)cc1`
OUT: 70 to 72 °C

IN: Name the recorded melting point of the compound listed here: `CCSc1cnc(Oc2ccc(Cl)c(Cl)c2)cc1C#N`
OUT: 68 to 69 °C

IN: Name the recorded melting point of the compound listed here: `COc1cc([N+](=O)[O-])ccc1S(=O)(=O)n1c(=O)n(-c2ccccc2)c2cc(Cl)ccc21`
OUT: > 250 °C

IN: Name the recorded melting point of the compound listed here: `NS(=O)(=O)c1cnc(-c2cn(-c3nc(-c4ccc(C(F)(F)F)cc4)cc(C(F)(F)F)n3)cn2)s1`
OUT: 264 °C

IN: Name the recorded melting point of the compound listed here: `COc1cc(OC)nc(NC(=O)NS(=O)(=O)c2ccccc2S(=O)(=O)NC(=O)Nc2nc(OC)cc(OC)n2)n1`
OUT: 201 to 203 °C

IN: Name the recorded melting point of the compound listed here: Cc1cccc2c(=O)[nH]c(C3CN4CCC3CC4)nc12 (stereo not given)
OUT: 230 to 231 °C

IN: Name the recorded melting point of the compound listed here: `NC(=O)C(F)(F)C(F)(F)C(F)(F)C(F)(F)C(F)(F)C(F)(F)C(F)(F)F`
OUT: 136 to 137 °C
